Target: T1, Mutant 2 of human SPNS2 (FLAG tag inserted in extracellular loop 5) (human, UniProt Q8IVW8 1-549)
T1 construct: on HEK293 cells; also called extracellular loop 5 mutant
T1 sequence: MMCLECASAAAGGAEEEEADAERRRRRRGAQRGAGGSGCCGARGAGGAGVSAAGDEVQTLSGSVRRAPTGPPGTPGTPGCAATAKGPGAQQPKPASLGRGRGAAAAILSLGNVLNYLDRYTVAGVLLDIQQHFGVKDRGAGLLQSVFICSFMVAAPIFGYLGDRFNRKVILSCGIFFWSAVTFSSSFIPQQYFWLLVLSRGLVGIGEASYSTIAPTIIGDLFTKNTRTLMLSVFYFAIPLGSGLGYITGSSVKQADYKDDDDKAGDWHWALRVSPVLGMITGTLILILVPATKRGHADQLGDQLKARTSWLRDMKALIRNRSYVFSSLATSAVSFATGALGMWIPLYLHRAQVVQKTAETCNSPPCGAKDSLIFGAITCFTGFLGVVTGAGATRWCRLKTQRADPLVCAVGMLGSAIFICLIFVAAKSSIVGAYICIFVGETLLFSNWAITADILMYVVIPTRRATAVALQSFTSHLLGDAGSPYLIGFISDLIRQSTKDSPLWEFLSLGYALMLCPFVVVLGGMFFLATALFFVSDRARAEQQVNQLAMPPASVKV
Test: flow cytometry, FLAG-insertion mutant
PROPERTY: FITC+/Alexa 647+ cell rate ratio

Hello, please tell me recorded FITC+/Alexa 647+ cell rate ratio for this one: 50-0704C (antibody, IgG2b, V domains shown) VH: EVQLVGSGGGLVQPGRSMKLSCEASGFTFSNHYMAWVRQAPTKGLEWVATISTGGGNTYYRDSVKGRFTISRDNARSTLSLQMDSLRSEDTATYYCARQDYSNYMGGFAYWGQGTLVTVSS VL: QFVLTQPNSVSTNLGSTVKLSCTRSIGNIGNNYVNWYKQYEGRSPTTMIYRDDERPDGVPDRFSGSIDRSSNSALLTINSVQTEDEADYFCQSFSSGIFIFGGGTKLTVL
< 0.1 ratio

Hello, please tell me recorded FITC+/Alexa 647+ cell rate ratio for this one: 33-0503E (antibody, IgG2b, V domains shown) VH: EVQLVESGGGLVRPGGSMKLSCGASGFIFDNYYMTWVRQAPTKGLEWVASISSSGGNTYYRDSVRGRFTISRDNAGNTLSLQMGSLRAEDTATYHCAKEGYRGRYFDYWGQGVMVTVSS VL: QVVLTQPNSVSTNLGSTVKLSCKRTTGNIGSNYVNWYQQHEGRSPTTMIYRDDERPDGVPDRFSGSIDRSSNSALLTINNVQTEDEAEYFCQSYSSGIIFGGGTKLTVL
< 0.1 ratio

Hello, please tell me recorded FITC+/Alexa 647+ cell rate ratio for this one: 84-1111F (antibody, IgG2b, V domains shown) VH: EVQVVESGGGLVQPGRSMKLSCAALGFTFRDYYMAWVRQTPTKGLEWVAAISTGGGNTYYRDSVKGRFTISRDNAKSTLYLKMDSLRSDDTATYYCARNPYGNYFDYWGQGVMVTVSS VL: QFVLSQPNSVSTNLGSTVKLSCKRSTGNIGSNYVHWYQRHEGRSPTTMIYRDDKRPNGVPDRFSGSIDRSSNSALLTINNVQTEDEADYFCQSYSGGMYLFGGGTTLTVL
< 0.1 ratio

These entries and their values trace back to patent US20210147523A1.
